biological target: HLA-A*0201 (human); test: competition vs 125I probe peptide, purified HLA; details: remark: other sources report otherwise

- BINDER: "YLQLVFGIEV [MAGE2.157 …]"
  IC50 (nM): 50
- BINDER: "KMVELVHFL [MAGE2.112 …]"
  IC50 (nM): 9.8
